assay context: 298.15 K; 101 kPa; Liquid; Vibrating tube method
quantity: mass density (kg/m3)

CCC(C)O (stereo unspecified): 803.09
NC=O [formamide]: 1129
CCCC(C)O (stereo unspecified): 805.05
CCCCC(C)O (stereo unspecified): 810.14
CC(C)O: 780.95
CCCCCC(C)O (stereo unspecified): 813.38

====

assay context: 313.15 K; 101 kPa; Liquid; Capillary tube (Ostwald / Ubbelohde) method
quantity: viscosity (mPa·s)

A selection of reference data follows.
CCCCCC(C)O (stereo unspecified) [2-heptanol]: 2.96
CCC(C)O (stereo unspecified) [butan-2-ol]: 1.798
NC=O [formamide]: 2.42

[a] CCCC(C)O (stereo unspecified) [pentan-2-ol]
[b] CC(C)O [propan-2-ol]
## Input Returns: the argument ( a or b ) having the larger viscosity. // output: label of the selected item
## Output a

====

assay context: 308.15 K; 101 kPa; Liquid; Vibrating tube method
quantity: mass density (kg/m3)

CCCCCC(C)O (stereo unspecified) [2-heptanol]: 805.72
CC(C)O [propan-2-ol]: 772.39
NC=O [formamide]: 1120.98
CCCC(C)O (stereo unspecified) [pentan-2-ol]: 796.89
CCC(C)O (stereo unspecified) [butan-2-ol]: 795.04
CCCCC(C)O (stereo unspecified) [2-hexanol]: 802.06

// data source = the NIST ThermoML archive (doi:10.1016/j.jct.2013.09.043)
